Origin of measurements: patent US11161844B2

# target.system: mutant G2019S LRRK2 (Homo sapiens (Human), UniProt Q5S007, G2019S)
# Sequence (Q5S007 970-2527 G2019S): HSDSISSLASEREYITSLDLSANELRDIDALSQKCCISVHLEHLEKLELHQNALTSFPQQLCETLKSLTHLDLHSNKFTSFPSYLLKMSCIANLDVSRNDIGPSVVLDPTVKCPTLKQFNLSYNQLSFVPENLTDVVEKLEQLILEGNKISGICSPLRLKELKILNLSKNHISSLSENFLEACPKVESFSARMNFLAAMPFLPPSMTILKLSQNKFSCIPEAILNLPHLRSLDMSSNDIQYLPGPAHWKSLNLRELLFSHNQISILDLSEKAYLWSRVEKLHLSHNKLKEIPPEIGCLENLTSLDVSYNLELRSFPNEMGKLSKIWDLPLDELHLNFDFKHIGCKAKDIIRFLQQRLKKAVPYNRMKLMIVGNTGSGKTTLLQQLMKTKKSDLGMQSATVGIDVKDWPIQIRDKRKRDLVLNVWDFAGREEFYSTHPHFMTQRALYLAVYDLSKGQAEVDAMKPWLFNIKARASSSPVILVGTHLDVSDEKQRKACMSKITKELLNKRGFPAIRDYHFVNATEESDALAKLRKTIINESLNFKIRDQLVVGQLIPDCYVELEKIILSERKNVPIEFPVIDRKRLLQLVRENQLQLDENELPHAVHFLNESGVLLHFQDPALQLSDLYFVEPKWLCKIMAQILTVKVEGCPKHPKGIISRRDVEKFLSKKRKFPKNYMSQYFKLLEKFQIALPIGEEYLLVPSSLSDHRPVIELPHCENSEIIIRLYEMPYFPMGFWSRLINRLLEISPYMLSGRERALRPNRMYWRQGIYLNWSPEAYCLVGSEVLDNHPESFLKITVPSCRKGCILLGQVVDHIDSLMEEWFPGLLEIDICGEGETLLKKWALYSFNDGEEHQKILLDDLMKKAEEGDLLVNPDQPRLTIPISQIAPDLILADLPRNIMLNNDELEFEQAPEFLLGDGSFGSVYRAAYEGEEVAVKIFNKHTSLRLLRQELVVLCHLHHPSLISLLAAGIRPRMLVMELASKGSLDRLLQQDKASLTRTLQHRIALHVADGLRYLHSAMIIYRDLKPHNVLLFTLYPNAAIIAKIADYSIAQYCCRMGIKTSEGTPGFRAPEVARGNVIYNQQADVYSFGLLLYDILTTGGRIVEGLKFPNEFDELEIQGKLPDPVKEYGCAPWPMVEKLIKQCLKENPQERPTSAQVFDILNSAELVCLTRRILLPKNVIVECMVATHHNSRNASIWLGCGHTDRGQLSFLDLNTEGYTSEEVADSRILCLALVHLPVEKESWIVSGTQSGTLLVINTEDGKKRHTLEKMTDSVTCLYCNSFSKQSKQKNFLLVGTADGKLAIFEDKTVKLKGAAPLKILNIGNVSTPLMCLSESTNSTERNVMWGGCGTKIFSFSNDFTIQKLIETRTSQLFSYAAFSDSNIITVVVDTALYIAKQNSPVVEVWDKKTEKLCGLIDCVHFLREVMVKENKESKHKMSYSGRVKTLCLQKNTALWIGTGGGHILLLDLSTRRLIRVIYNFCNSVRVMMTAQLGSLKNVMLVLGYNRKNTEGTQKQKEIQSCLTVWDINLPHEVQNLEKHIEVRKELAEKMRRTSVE
# protocol: LRRK2 kinase assay (Lantha Screen), mutant G2019S
# protocol.conditions: 100 nM LRRKtide, 1 mM ATP, 2 μg/mL enzyme; single determination unless otherwise indicated
reported.endpoint: IC50 (nM)

molecule | unit.annotation | IC50
CO[C@H]1C[C@@H](c2nc3cnc4ccc(Cl)cc4c3n2[C@@H]2CCO[C@H](C)C2)C1 | nM | 11.9
CC1(C)CC(n2c(C3CCC(F)C3)nc3cnc4ccc(C#N)cc4c32)CCO1 (stereo not drawn) [Example 41] | nM | 49.6
C[C@@H]1C[C@H](n2c(C3COC3)nc3cnc4ccc(Cl)cc4c32)CCO1 | nM | 21.2

(I) CN1CC[C@@H](n2c(C3CCC(F)C3)nc3cnc4ccc(C#N)cc4c32)C1 (stereo partly drawn) [Example 33]
(II) C[C@@H]1C[C@H](n2c(C3CCC(F)(F)C3)nc3cnc4ccc(Cl)cc4c32)CCO1 (stereo partly drawn)
(III) CC1CC(c2nc3cnc4ccc(Cl)cc4c3n2[C@@H]2CCO[C@H](C)C2)CO1 (stereo partly drawn)
Prompt: Ordering: ascending IC50. As an answer, provide the labels arranged in the order called for.
Response: I, II, III
(I: 4.3 nM, II: 13.8 nM, III: 23.3 nM)

----------
# target.system: LRRK2, WT (GST-tagged truncated LRRK2) (Homo sapiens (Human), UniProt Q5S007)
# Sequence (Q5S007 970-2527): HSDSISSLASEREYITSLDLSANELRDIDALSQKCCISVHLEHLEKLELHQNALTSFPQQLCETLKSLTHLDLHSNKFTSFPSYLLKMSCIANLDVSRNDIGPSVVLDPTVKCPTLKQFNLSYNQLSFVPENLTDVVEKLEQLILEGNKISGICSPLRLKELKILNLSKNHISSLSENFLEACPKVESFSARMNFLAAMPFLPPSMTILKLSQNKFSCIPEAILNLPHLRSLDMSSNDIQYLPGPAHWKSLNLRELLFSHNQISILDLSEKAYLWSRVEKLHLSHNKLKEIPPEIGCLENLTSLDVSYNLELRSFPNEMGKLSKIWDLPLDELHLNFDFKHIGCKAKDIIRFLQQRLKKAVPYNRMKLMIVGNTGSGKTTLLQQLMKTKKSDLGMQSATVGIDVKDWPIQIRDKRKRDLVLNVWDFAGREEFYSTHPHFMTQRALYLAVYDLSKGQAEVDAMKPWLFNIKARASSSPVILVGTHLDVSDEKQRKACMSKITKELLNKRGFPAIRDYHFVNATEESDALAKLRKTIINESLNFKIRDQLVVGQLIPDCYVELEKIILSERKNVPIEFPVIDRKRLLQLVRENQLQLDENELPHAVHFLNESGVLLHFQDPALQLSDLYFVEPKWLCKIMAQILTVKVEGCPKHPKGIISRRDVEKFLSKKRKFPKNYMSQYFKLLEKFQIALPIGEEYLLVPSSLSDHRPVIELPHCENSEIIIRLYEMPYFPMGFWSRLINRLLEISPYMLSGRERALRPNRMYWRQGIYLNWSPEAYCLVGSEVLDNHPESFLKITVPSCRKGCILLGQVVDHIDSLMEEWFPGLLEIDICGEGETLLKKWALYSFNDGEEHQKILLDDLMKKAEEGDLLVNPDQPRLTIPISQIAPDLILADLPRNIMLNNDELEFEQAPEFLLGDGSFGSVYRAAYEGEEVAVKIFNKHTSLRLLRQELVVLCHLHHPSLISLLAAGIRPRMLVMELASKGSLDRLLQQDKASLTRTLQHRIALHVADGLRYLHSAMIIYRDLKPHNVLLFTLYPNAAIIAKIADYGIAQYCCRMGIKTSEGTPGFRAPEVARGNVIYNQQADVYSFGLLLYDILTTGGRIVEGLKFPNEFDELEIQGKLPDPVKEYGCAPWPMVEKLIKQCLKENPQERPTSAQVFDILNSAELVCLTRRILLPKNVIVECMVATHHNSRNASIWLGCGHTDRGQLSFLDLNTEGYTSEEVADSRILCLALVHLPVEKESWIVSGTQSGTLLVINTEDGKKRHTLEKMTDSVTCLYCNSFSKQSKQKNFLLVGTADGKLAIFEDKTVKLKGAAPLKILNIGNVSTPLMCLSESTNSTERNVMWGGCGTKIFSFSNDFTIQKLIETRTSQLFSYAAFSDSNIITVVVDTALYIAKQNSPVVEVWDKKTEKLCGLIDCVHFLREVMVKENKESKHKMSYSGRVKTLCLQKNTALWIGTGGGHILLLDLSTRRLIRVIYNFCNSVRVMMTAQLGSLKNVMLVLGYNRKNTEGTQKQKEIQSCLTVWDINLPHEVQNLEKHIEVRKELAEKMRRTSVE
# protocol: LRRK2 kinase assay (Lantha Screen), wild type
# protocol.conditions: 100 nM LRRKtide, 1 mM ATP, 2 μg/mL enzyme; geometric mean of 2-4 determinations unless otherwise indicated
Each entry below carries its recorded IC50.

compound | observed.measurement
CC1(C)C[C@H](n2c([C@@H]3CC[C@H](F)C3)nc3cnc4ccc(C#N)cc4c32)CCO1 | > 3 µM
CN1CC(n2c(C3CCC(F)C3)nc3cnc4ccc(C#N)cc4c32)C(F)(F)C1 (stereo not drawn) [Example 62] | > 3 µM

Now look at this entry.
Prompt: Input CC1(C)C[C@H](n2c([C@H]3CC[C@@H](F)C3)nc3cnc4ccc(C#N)cc4c32)CCO1 , output reported IC50.
Response: > 3 µM
